target_of_assay: human S1P5 (Homo sapiens)
Sequence (Q9H228 whole entry): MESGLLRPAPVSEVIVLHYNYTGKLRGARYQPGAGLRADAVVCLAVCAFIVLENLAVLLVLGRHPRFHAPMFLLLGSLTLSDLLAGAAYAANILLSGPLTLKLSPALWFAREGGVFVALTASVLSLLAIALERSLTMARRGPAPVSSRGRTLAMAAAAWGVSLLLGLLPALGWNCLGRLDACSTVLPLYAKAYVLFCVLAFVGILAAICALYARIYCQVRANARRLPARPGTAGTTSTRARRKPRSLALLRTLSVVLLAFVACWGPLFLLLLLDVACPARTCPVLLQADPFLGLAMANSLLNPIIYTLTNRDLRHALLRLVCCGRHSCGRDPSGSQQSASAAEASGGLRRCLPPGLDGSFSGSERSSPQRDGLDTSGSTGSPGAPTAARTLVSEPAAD
Structures can show the parent of a compound that is named as a salt.
quantity: pIC50
Units for pIC50: none; it is -log10 of a concentration expressed in mol/L.

Observed pIC50 on human S1P5 (Homo sapiens), entry CC1=C(CNCCC(=O)O)CCc2cc(OCCCC3CCCCC3)ccc21 [Comparative Compound C, hydrochloride] , equals 8.07

###

target_of_assay: human S1P1 (EDG-1) (Homo sapiens)
Sequence (P21453 whole entry): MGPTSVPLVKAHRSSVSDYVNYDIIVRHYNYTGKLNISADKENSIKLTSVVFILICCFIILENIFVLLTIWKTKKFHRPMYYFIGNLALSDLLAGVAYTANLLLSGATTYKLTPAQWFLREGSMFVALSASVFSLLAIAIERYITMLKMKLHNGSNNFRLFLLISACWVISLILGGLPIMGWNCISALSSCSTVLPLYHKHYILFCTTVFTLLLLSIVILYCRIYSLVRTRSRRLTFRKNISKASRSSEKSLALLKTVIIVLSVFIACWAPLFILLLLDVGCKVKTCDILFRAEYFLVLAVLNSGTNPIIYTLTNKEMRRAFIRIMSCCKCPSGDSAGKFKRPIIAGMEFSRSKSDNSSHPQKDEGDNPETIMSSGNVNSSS
assay_procedure: S1P receptor agonist activity by monitoring intracellular calcium concentration (S1P1)
experimental_context: CHO cells overexpressing human S1P1 (EDG-1) gene; intracellular calcium increase; S1P signal = 100% activity
quantity: EC50

[2H]C([2H])([2H])C([2H])([2H])C([2H])([2H])C([2H])([2H])Oc1ccc2c(c1)C[C@H](C)C(CN1CC(C(=O)O)C1)=C2    > 3 µM
C[C@H]1Cc2cc(OCCCC(F)(F)F)ccc2C=C1CN1CC(C(=O)O)C1    > 3 µM
CC(N[C@H]1C[C@@H](C(=O)O)C1)C1=Cc2ccc(OCCCC(F)(F)F)cc2C[C@@H]1C (stereo partly drawn)    > 30 µM
CCCc1ccc(COc2ccc3c(c2)CCC(CN2CC(C(=O)O)C2)=C3C)c(OC)c1 [Comparative Compound B, reference compound]    0.0002 µM
COc1ccc2c(c1)C[C@H](C)C(CN1CC(F)(C(=O)O)C1)=C2 [Comparative Example, reference compound]    > 10 µM
C[C@H]1Cc2cc(OCCCC(F)(F)F)ccc2C=C1CN1CC[C@@H](C(=O)O)C1    > 3 µM
CCCCCOc1ccc2c(c1)C[C@H](C)C(CN1CC(C(=O)O)C1)=C2    > 3 µM
C[C@H]1Cc2cc(OC/C=C/C(F)(F)F)ccc2C=C1CN1CC(F)(C(=O)O)C1    > 30 µM

The reported EC50 of the molecule "C[C@H]1Cc2cc(OCCC(F)=C(F)F)ccc2C=C1CN1CC(F)(C(=O)O)C1" was > 3 µM

The reported EC50 of the molecule CCCCCCCCOc1ccc2c(c1)CCC(CN1CC(C(=O)O)C1)=C2C.Cl [Comparative Compound A, hydrochloride, reference compound] was < 0.003 µM

The reported EC50 of the molecule "C[C@H]1Cc2cc(OCCC(F)(F)F)ccc2C=C1CN1CC(F)(C(=O)O)C1" was > 30 µM

The reported EC50 of the molecule "CCCOCc1ccc2c(c1)C[C@H](C)C(CN1CC(C(=O)O)C1)=C2" was > 30 µM
